System: normal male SD rats
Experiment: Plasma Ca^2+ level of rats after single oral administration
Assay type: in vivo
Settings: rat, mean of six animals, 2 hr after single oral dose 30 μmol/kg; vehicle 10% cyclodextrin (** 1% sodium-CMC)
Examples of molecules with documented Plasma Ca^2+ (mmol/l) 2 hr follow.
Report the value in mmol/L with no unit label.

Reference set, count: 3
C[C@@H](NCCC(=O)N(Cc1ccc(Cl)c(Cl)c1)Cc1ccc(Cl)c(Cl)c1)c1cccc2ccccc12 = 1.363
C[C@@H](NCCC(=O)N(Cc1ccccc1)Cc1ccc(Cl)c(Cl)c1)c1cccc2ccccc12 = 1.225
C[C@@H](NCCC(=O)N(Cc1ccc(C(F)(F)F)cc1)Cc1ccc(Cl)c(Cl)c1)c1cccc2ccccc12 = 1.203

Input: # input molecule: CCOc1ccc2sc(SCCCCN[C@H](C)c3cccc4ccccc34)nc2c1 ; wanted: its Plasma Ca^2+ (mmol/l) 2 hr
Output: 1.227

====

Molecular target: human calcium receptor (Homo sapiens)
Sequence (P41180 20-1078): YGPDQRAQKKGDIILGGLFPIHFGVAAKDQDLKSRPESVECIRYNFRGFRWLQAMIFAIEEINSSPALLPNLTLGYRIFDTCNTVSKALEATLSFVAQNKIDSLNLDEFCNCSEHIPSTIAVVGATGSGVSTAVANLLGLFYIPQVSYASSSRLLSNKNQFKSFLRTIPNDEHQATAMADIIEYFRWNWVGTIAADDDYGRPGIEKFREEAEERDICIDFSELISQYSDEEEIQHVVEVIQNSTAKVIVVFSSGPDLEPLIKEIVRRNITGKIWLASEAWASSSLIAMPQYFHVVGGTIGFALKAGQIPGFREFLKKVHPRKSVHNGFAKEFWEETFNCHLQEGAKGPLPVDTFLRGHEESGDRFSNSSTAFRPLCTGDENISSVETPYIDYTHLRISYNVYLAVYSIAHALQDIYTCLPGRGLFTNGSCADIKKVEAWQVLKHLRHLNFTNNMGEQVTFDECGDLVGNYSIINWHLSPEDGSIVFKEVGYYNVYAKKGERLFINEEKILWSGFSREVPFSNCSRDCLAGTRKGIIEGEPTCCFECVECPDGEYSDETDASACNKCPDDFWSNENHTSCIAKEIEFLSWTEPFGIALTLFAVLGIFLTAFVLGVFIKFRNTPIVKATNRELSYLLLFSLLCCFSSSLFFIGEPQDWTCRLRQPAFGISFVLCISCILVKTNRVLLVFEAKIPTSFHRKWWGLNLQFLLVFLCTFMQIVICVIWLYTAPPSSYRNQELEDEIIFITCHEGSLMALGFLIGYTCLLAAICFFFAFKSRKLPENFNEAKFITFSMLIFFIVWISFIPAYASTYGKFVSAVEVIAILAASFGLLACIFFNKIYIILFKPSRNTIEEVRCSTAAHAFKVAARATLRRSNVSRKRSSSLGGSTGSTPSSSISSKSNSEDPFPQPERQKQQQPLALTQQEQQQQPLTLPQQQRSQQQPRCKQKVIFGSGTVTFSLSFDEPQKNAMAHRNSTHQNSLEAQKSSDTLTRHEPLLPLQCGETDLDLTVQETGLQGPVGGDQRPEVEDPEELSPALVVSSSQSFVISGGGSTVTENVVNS
Assay: Activity on calcium receptors: fluo-3 fluorescence in HEK293 cells transfected with human calcium receptor gene
Settings: HEK293 cells transfected with plasmid pHuPCaR4.0 (human calcium receptor gene), loaded with fluo-3; 1 mM CaCl2, 1 mM MgCl2
pEC50: −log10 of the molar value.
Quick rule: pEC50 of at least 6 means Criterion met, below that means Criterion not met.

Input: Entry COc1cccc(C(C)NCCCCCCSc2ccccc2Cl)c1 (stereo not drawn) [Compound 26] : is its pEC50 no less than 6?
Output: Criterion not met

Input: Entry COc1ccc(SCCCCCN[C@H](C)c2cccc3ccccc23)cc1 [Compound K-2280] : is its pEC50 no less than 6?
Output: Criterion met

Input: Entry COc1cccc(C(C)NCCCOc2ccccc2Cl)c1 (stereo not drawn) [Compound 62] : is its pEC50 no less than 6?
Output: Criterion met

Input: Entry C[C@@H](NCCC(=O)N(Cc1ccccc1)Cc1ccc(Cl)cc1)c1cccc2ccccc12 [Compound K-2247] : is its pEC50 no less than 6?
Output: Criterion met

Input: Entry CC(NCCCOc1ccc2[nH]ccc2c1)c1cccc2ccccc12 (stereo not drawn) [Compound 112] : is its pEC50 no less than 6?
Output: Criterion met

====

Molecular target: human calcium receptor (Homo sapiens)
Assay: Activity on calcium receptors: fluo-3 fluorescence in HEK293 cells transfected with human calcium receptor gene
Settings: HEK293 cells transfected with plasmid pHuPCaR4.0 (human calcium receptor gene), loaded with fluo-3; 1 mM CaCl2, 1 mM MgCl2
reported.property: pEC50
pEC50 here: minus log base 10 of the concentration, concentration in moles per litre.

Reference set, count: 3
COc1cccc(C(C)NCCCCSc2nc3ccccc3s2)c1 (stereo not drawn) [Compound 36] = 6.68
CC(NCCOc1cccc(Cl)c1)c1cccc2ccccc12 (stereo not drawn) [Compound K-2030] = 7.31
COc1cccc(C(C)NCCCCSc2cccc(Br)c2)c1 (stereo not drawn) [Compound K-2047] = 6.89

Input: # input molecule: COc1cccc(C(C)NCCCCCCOc2ccc(Br)cc2)c1 (stereo not drawn) [Compound K-2006] ; wanted: its pEC50
Output: 6.11

Input: # input molecule: Cc1ccc(C)c(SCCCCCCCCCCCCNC(C)c2cccc3ccccc23)c1 (stereo not drawn) [Compound S-16] ; wanted: its pEC50
Output: 6.96

Input: # input molecule: COc1cccc(C(C)NCCCCOc2ccc(Br)cc2)c1 (stereo not drawn) [Compound K-2004] ; wanted: its pEC50
Output: 6.38

Input: # input molecule: COc1cccc(C(C)NCCCCSc2ccc(F)cc2)c1 (stereo not drawn) [Compound K-2040] ; wanted: its pEC50
Output: 7.10

Input: # input molecule: COc1cccc(C(C)NCCCCSc2cccc(C(F)(F)F)c2)c1 (stereo not drawn) [Compound K-2010] ; wanted: its pEC50
Output: 6.85

Input: # input molecule: COc1cccc(C(C)NCCCOC2c3ccccc3-c3ccccc32)c1 (stereo not drawn) [Compound 56] ; wanted: its pEC50
Output: 6.55
